Assay: Human blood plasma stability assay
Assay type: in vitro ADME
Conditions: human, plasma; 0.25 mM, 37° C., in vitro; read-out: half-life (T1/2) in human blood plasma
Where no end group is shown, it is not given here.
Measured Property: half-life at 0.25 mM (h)
Quick reminder: number only, in h, skip the unit.

# half-life at 0.25 mM lookup, item YGRKKRRQRRRKLSSIESDV [Tat-NR2B9c, reference compound]
18.3

Reference source: patent US9139615B2
